Measured values drawn from ChEMBL document CHEMBL4673241 for this set.

Biological target: Transient receptor potential cation channel subfamily V member 2 (Rattus norvegicus, UniProt Q9WUD2)
Sequence (Q9WUD2 whole entry): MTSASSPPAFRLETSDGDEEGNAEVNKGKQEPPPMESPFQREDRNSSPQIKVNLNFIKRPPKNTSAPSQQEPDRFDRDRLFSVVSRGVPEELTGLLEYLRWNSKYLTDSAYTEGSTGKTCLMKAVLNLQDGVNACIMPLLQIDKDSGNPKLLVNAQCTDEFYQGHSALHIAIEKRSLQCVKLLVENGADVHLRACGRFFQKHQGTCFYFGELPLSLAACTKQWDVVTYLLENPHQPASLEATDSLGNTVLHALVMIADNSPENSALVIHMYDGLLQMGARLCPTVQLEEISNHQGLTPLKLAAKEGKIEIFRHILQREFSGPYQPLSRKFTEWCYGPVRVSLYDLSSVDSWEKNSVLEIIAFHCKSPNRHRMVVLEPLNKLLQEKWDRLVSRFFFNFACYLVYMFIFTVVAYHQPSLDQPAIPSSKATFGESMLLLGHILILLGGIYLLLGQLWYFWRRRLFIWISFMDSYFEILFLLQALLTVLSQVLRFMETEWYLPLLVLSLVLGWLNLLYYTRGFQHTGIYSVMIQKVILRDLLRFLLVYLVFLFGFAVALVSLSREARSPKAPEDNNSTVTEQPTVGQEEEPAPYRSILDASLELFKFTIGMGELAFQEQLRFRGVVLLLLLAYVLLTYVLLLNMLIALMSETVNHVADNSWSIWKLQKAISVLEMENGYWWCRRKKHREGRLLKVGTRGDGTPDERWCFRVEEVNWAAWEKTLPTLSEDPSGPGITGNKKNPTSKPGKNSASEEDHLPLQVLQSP
Test: Antagonist activity at rat TRPV2 expressed in HEK293 cells assessed as inhibition of LPC-induced Ca2+ response preincubated for 5 mins followed by LPC addition by Fluo-4AM dye based fluorescence assay
property: IC50 (µM)
Respond with the bare value in µM.

input: Which measured IC50 value corresponds to "C=C(C)[C@@H]1CCC(C)=C[C@H]1c1c(O)cc(CCCCC)cc1O" ?
output: 1.1
